assay: qHTS for Inhibitors of human tyrosyl-DNA phosphodiesterase 1 (TDP1): qHTS in cells in presence of CPT; conditions: chicken DT40 Tdp1-/-;hTDP1 cells + 20 nM CPT, ATP luminescence, 48 h; series mostly up to 46.2 µM; also: nearly all actives have a fitted effect of over 55% in size
In all, about 420,000 compounds went through this assay and about 50,000 (12%) were called active. About 26% were inconclusive and are not listed. Calls follow the shape of the dose curve; as a rule, active = well fitted inhibition curve with a large enough effect; inconclusive = small, poorly fitted or top-dose-only effect; inactive = flat fitted curve, though single readings scatter. Only a selection was taken, and actives are over-represented in it overall.
Outcome codes: active, inactive

[[record]]
compound = "CC(C)Oc1cccc(C(=O)C2CCCN(C3CCOCC3)C2)c1 (stereo not given)"
classification = "inactive"

[[record]]
compound = "Oc1cc2c(cc1CN1CCN(c3ccccc3)CC1)OCO2"
classification = "inactive"

[[record]]
compound = "CC1=CC(=O)C2=C(C)C[C@H](O)[C@H]3[C@H](C)C(=O)O[C@@H]3C12 (stereo not given in full)"
classification = "inactive"

[[record]]
compound = "CC12CN3CC(C)(CN(C1)C3c1cccs1)C2 (stereo not given)"
classification = "inactive"

[[record]]
compound = "COC(=O)[C@@]12C[C@@H](CC(=O)NCc3cccc(C(F)(F)F)c3)C(=O)N(Cc3ccco3)C1=CCC(C)(C)C2"
classification = "active"

[[record]]
compound = "COc1cc(Cl)ccc1Nc1ncc(C(=O)N2CCN(c3ccccc3OC)CC2)c2ccccc12"
classification = "active"

[[record]]
compound = "COc1cc2[nH]c(C)c(CCN3CCN(c4ccccc4)CC3)c2cc1OC"
classification = "active"

[[record]]
compound = "NS(=O)(=O)c1ccc(CCNC(=O)c2ccc(Cl)c(S(=O)(=O)N3CCCCCC3)c2)cc1"
classification = "active"

[[record]]
compound = "CC(=O)N(C1=NCCCS1)c1ccccc1F"
classification = "inactive"

[[record]]
compound = "CCCC[N+]1(C)C2CC(OC(=O)C(CO)c3ccccc3)CC1C1OC12 (stereo not given)"
classification = "inactive"


----------
assay: qHTS for Inhibitors of human tyrosyl-DNA phosphodiesterase 1 (TDP1): qHTS in cells in presence of CPT; conditions: chicken DT40 Tdp1-/-;hTDP1 cells + 20 nM CPT, ATP luminescence, 48 h; series mostly up to 46.2 µM; also: nearly all actives have a fitted effect of over 55% in size
About 50,000 (12%) of roughly 420,000 compounds were called active. Roughly 26% stayed inconclusive and do not appear here. Calls come from the whole dose curve; as a rule, active = well fitted inhibition curve with a large enough effect; inconclusive = small, poorly fitted or top-dose-only effect; inactive = flat fitted curve, though single readings scatter. The full list was thinned out, with actives kept by preference.
Labels: active, inactive

[[record]]
molecule = "C[C@@]12CCC3C(CC[C@@H]4CC(O)CC[C@@]34C)C1CCC2O (stereo not given in full)"
classification = "inactive"

[[record]]
molecule = "CC(C)c1c(CN(C)C(C)Cc2ccccc2)n(C)n(-c2ccccc2)c1=O (stereo not given)"
classification = "inactive"

[[record]]
molecule = "O=C(Nc1cccc2ccccc12)N1CCC2(CC1)OCCO2"
classification = "inactive"

[[record]]
molecule = "Oc1ccc2c3c1OC1[C@H](O)CC[C@@]4(O)[C@@H](C2)N(CC2CC2)CC[C@]314 (stereo not given in full)"
classification = "inactive"

[[record]]
molecule = "CNC(=S)N/N=C1\\C2CN3CCN(C2)CC1(c1ccccc1)C3"
classification = "inactive"

[[record]]
molecule = "COC12CC[C@@]3(C[C@@H]1C(C)(O)C(C)(C)C)[C@H]1Cc4ccc(O)c5c4[C@@]3(CCN1CC1CC1)[C@H]2O5 (stereo not given in full)"
classification = "active"

[[record]]
molecule = "CC1CNCCN1c1ccc(Cl)cc1 (stereo not given)"
classification = "inactive"

[[record]]
molecule = "Cc1nn(Cc2ccccc2Cl)c(Cl)c1C(=O)OC(C(=O)NC(N)=O)C(C)C (stereo not given)"
classification = "inactive"

[[record]]
molecule = "CC1CCC(N(C)C2CCN(C)CC2)CC1 (stereo not given)"
classification = "inactive"

[[record]]
molecule = "O=C(O)c1cc[c]([Sb](=[O])([OH])[OH])cc1[N+](=O)[O-]"
classification = "inactive"

